# System: rats
# run description: Phenylquinone Writhing Test (analgesic activity)
# Type: in vivo
# measurement context: Rattus norvegicus, oral, 60 minutes before phenylquinone i.p., writhing reduced to half of control

{"molecule": "CCOC(=O)n1nc(N)c2cc(C(F)(F)F)ccc21", "ED50 / mg/kg": 1}
{"molecule": "Nc1n[nH]c2ccc(C(F)(F)F)cc12 [3-amino-5-trifluoromethylindazole, reference compound]", "ED50 / mg/kg": 61}
{"molecule": "CN(C)C(=O)n1nc2cc(Cl)ccc2c1N", "ED50 / mg/kg": 17}
{"molecule": "CCOC(=O)n1nc(N(C)C)c2ccc(Cl)cc21", "ED50 / mg/kg": 17}

====

# run description: Acute Toxicity (oral, mouse)
# measurement context: in vivo

{"molecule": "CCOC(=O)n1nc(N)c2cc(C(F)(F)F)ccc21", "LD50": "> 5000 mg/kg"}
{"molecule": "CCNC(=O)n1nc(N)c2cc(C(F)(F)F)ccc21", "LD50": "> 1000 mg/kg"}
{"molecule": "CCOC(=O)n1nc(N)c2ccccc21", "LD50": "~3000 mg/kg"}
{"molecule": "CN(C)C(=O)n1nc(N)c2ccc(Cl)cc21", "LD50": "> 1000 mg/kg"}
{"molecule": "Nc1n[nH]c2ccc(C(F)(F)F)cc12 [3-amino-5-trifluoromethylindazole, reference compound]", "LD50": "228 mg/kg"}
{"molecule": "CCOC(=O)n1nc(N(C)C)c2ccc(Cl)cc21", "LD50": "> 5000 mg/kg"}
{"molecule": "CCOC(=O)n1nc(N)c2ccc(Cl)cc21", "LD50": "~2000 mg/kg"}
{"molecule": "CCCCOC(=O)n1nc(N)c2ccc(Cl)cc21", "LD50": "> 1000 mg/kg"}
{"molecule": "CN(C)C(=O)n1nc(NC=O)c2cc(C(F)(F)F)ccc21", "LD50": "> 1000 mg/kg"}
{"molecule": "COC(=O)n1nc(N)c2ccc(Cl)cc21", "LD50": "> 1000 mg/kg"}

Where do these numbers come from? They come from patent US4051252A.
